system: Wolbachia pipientis; assay: Anti-Wolbachia Cell-Based Screen; type: functional; design: scale not given: in the data most compounds retested in dose-response had high values; settings: 5 µM
About 13,000 (27%) of roughly 48,000 compounds showed an effect of 50% or more. The list shows a part of the results.
quantity-measured: Percent Effect

* COCC(=O)N1CCN(C(=O)CCc2ccsc2)CC1 | -13.91%
* CC(C)c1cc(C(=O)N2CCCC(c3cc(=O)nc4n3CCC4)C2)no1 (stereo not given) | 118.8%
* CCc1cnc(CNc2ccc(C(=O)NCc3ccco3)cc2C)o1 | 4.048%
* Cc1cc(C(=O)N2CCCC(c3nccn3Cc3cscn3)C2)on1 (stereo not given) | -8.995%
* O=C(O)C(F)(F)F.O=c1ccc2c(n1CC1CCOCC1)CCN(Cc1ccoc1)CC2 | 125.5%
* Cc1ncsc1C(=O)NCCSCc1cccs1 | -6.016%
* CCOCc1nc2c(c(NC(CC)c3ccncc3)n1)CCNCC2 (stereo not given) | -23.76%
* CC(C)CCN1CCNC(=O)C1CC(=O)N1CCc2sccc2C1 (stereo not given) | -6.453%
* O=C(O)C(F)(F)F.O=S(=O)(C1CC1)N1CCC2(CN(c3ccccn3)C2)C1 | 2.12%
* CCn1cc2c(n1)CN(S(=O)(=O)c1cn(C)cn1)CC2COC.O=C(O)C(F)(F)F (stereo not given) | -7.552%
* CC(C)C(NC(=O)N1CCN(c2ccc(Cl)cc2)CC1)C(=O)NC1CC1 (stereo not given) | 0.3878%
* Cc1ncsc1CN(C)C(=O)C(CC(C)C)N1CCCCC1=O (stereo not given) | 12.62%
* Cc1ccc(CNC(=O)Nc2cc(C(F)(F)F)c[nH]c2=O)cn1 | 3.357%
* Cc1noc(C)c1C(=O)N1CCCC(c2c(C)c(=O)nc3n2CCC3)C1 (stereo not given) | 87.08%
* Cc1ncsc1C(=O)NCCn1nc2ccccn2c1=O | -10.37%
* CCCN(CC1CC1)C(=O)Nc1ccc(N2CCSCC2)cc1C | -17.78%
* Cn1cnc(S(=O)(=O)N2CC3(CCN(CC4CC4)C3)C2)c1.O=C(O)C(F)(F)F.O=C(O)C(F)(F)F | 100.1%
* CCN1CCC2(C1)CN(S(=O)(=O)c1cn(C)cn1)C2.O=C(O)C(F)(F)F.O=C(O)C(F)(F)F | 110.7%
* CC(C)CN1CCC2(C1)CN(S(=O)(=O)c1cn(C)cn1)C2.O=C(O)C(F)(F)F.O=C(O)C(F)(F)F | 81.89%
* Cc1ccc(CNC(=O)Nc2nncs2)cn1 | 108.3%
* CCc1ccsc1C(=O)N1CCCC(c2noc(C)n2)C1 (stereo not given) | -6.826%
* COc1cccc(NC(=O)NCC(C)(O)CCSC)c1OC (stereo not given) | -0.9088%
* CC(C)CO[C@H]1CN(S(=O)(=O)c2cn(C)cn2)[C@@H]2CCCO[C@H]12.O=C(O)C(F)(F)F | -4.682%
* CS(=O)(=O)N1CCc2ccc(=O)n(CC3CCOCC3)c2CC1 | -13.75%
* Cc1cc(C(=O)N2CCCC(n3nc(C)cc3C)C2)on1 (stereo not given) | 6.311%
* CSCCC(=O)N1CCN(CC(O)C(C)(C)C)CC1 (stereo not given) | -10.5%
* COCC(=O)N1CC[C@]2(O)CCN(C(=O)CCc3ccsc3)C[C@@H]2C1 | 120%
* CCC(CC)NC(=O)c1ccc2nnc(C3CCN(C(C)=O)C3)n2c1 (stereo not given) | -17.88%
* Cn1cnc(C(=O)N2CC3(CCN(S(=O)(=O)c4ccccc4)C3)C2)c1 | -0.5352%
* Cc1c(C2CCCN(C(=O)c3ccncc3)C2)n2c(nc1=O)CCC2.Cl (stereo not given) | 99.59%
* Cc1ccc(CNC(=O)Nc2nncs2)n1C | -4.226%
* Cc1ncsc1CCN(C)C(=O)CN1CCCCCC1=O | -1.63%
* Cc1c(C2CCCN(C(=O)c3cccnc3)C2)n2c(nc1=O)CCC2 (stereo not given) | 104.3%
* O=C(CSc1ccccc1)Nc1cnn(CC(=O)N2CCCO2)c1 | 2.043%
* Cc1cnn(CCNCc2c(C)nn(-c3ccccc3)c2C)c1 | 2.27%
* CC(C)(CNC(=O)C1(c2cccc(Br)c2)CCOCC1)C(=O)O | -13.82%
* Cc1ncsc1C(=O)OCCN1CCCc2ccccc21 | 101.6%
* Cc1ccc(CNC(=O)NCc2csc(C)n2)cn1 | -1.986%
* Cc1ncsc1C(=O)OCCN1CCCCCC1=O | 115.8%
* O=C(CCc1ccsc1)N1CCC(Cc2ccc(CO)cc2)C1 (stereo not given) | -8.756%
* Cc1cn2c(=O)c(-c3ccnc(N[C@@H](C)CO)n3)cnc2s1 | 99.21%
* Cn1cccc1C1CCCN1C(=O)NCCCn1cccn1 (stereo not given) | -1.835%
* Cc1cccn2c(CNC(C)CCc3ccc(O)cc3)cnc12 (stereo not given) | -2.833%
* CCc1cn[nH]c1C1CCCN(C(=O)c2cc(C(C)C)on2)C1 (stereo not given) | 3.205%
* CCO[C@H]1CCN(S(=O)(=O)c2cn(C)cn2)[C@H]1Cc1ccccc1.O=C(O)C(F)(F)F | -2.456%
